Data provenance is patent US10705101B2.

Test: Probe calibration by titration with FFA / FFA-BSA complexes: AA
Type: binding
Details: equilibrium dissociation constant of probe for AA
Value Kind: Kd (nM)

INSERT INTO measurements (molecule, experimental_result) VALUES
  ('L11P7 B3 V26C: acrylodan-labeled mutant FABP probe: M21F, V26C, L72A, L78V, L102V (protein, UniProt P02693 2-132, looked up, variant M21F V26C L72A L78V L102V, acrylodan label, acrylodan-labeled mutant FABP probe: M21F, V26C, L72A, L78V, L102V) Fatty acid-binding protein, …: AFDGTWKVDRNENYEKFMEKFGINVCKRKLGAHDNLKLTITQEGNKFTVKESSNFRNIDVVFELGVDFAYSAADGTEVTGTWTMEGNKLVGKFKRVDNGKEVIAVREISGNELIQTYTYEGVEAKRIFKKE', 6.1),
  ('L10P7 A4 L30C: acrylodan-labeled mutant FABP probe: Y14L, M18L, K27A, L30C, G31Y, A73L, Y117A (protein, UniProt P02693 2-132, looked up, variant Y14L M18L K27A L30C G31Y A73L Y117A, acrylodan label, acrylodan-labeled mutant FABP probe: Y14L, M18L, K27A, L30C, G31Y, A73L, Y117A) Fatty acid-binding protein, …: AFDGTWKVDRNENLEKFLEKMGINVVARKCYAHDNLKLTITQEGNKFTVKESSNFRNIDVVFELGVDFAYSLLDGTELTGTWTMEGNKLVGKFKRVDNGKELIAVREISGNELIQTATYEGVEAKRIFKKE', 1),
  ('L2P22 G6: acrylodan-labeled mutant FABP probe: M18I, G31Y, A73G (protein, UniProt P02693 2-132, looked up, variant M18I G31Y A73G, acrylodan label, acrylodan-labeled mutant FABP probe: M18I, G31Y, A73G) Fatty acid-binding protein, …: AFDGTWKVDRNENYEKFIEKMGINVVKRKLYAHDNLKLTITQEGNKFTVKESSNFRNIDVVFELGVDFAYSLGDGTELTGTWTMEGNKLVGKFKRVDNGKELIAVREISGNELIQTYTYEGVEAKRIFKKE', 90.6),
  ('L1P8 H2: acrylodan-labeled mutant FABP probe: Y14M, L38M, L72W (protein, UniProt P02693 2-132, looked up, variant Y14M L38M L72W, acrylodan label, acrylodan-labeled mutant FABP probe: Y14M, L38M, L72W) Fatty acid-binding protein, …: AFDGTWKVDRNENMEKFMEKMGINVVKRKLGAHDNLKMTITQEGNKFTVKESSNFRNIDVVFELGVDFAYSWADGTELTGTWTMEGNKLVGKFKRVDNGKELIAVREISGNELIQTYTYEGVEAKRIFKKE', 104),
  ('ADIFAB2: acrylodan-labeled (lysine 27) mutant FABP probe: L72A (protein, UniProt P02693 2-132, looked up, variant L72A, acrylodan label on K27, acrylodan-labeled (lysine 27) mutant FABP probe: L72A) Fatty acid-binding protein, …: AFDGTWKVDRNENYEKFMEKMGINVVKRKLGAHDNLKLTITQEGNKFTVKESSNFRNIDVVFELGVDFAYSAADGTELTGTWTMEGNKLVGKFKRVDNGKELIAVREISGNELIQTYTYEGVEAKRIFKKE', 167);
